Biological target: Mitogen-activated protein kinase 9 (Homo sapiens) (UniProt P45984);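 further: values are mean inhibition of JNK2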
Sequence (P45984 whole entry, looked up): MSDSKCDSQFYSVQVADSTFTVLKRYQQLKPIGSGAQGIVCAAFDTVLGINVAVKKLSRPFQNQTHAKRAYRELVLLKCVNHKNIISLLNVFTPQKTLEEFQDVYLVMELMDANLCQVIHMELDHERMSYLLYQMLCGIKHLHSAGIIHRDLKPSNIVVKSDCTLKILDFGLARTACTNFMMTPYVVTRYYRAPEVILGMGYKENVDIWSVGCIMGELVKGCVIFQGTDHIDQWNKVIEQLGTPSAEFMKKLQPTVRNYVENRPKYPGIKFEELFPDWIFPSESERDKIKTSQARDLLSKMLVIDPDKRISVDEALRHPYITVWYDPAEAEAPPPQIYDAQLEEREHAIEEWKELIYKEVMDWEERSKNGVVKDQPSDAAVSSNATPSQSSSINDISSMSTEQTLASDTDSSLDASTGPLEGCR
Details: at 0.1 µM
Consider the following compounds; for each one, report its inhibition.
The answer is to be given in %; state only the numeric part.

Return reported inhibition; argument: O=C1Nc2ccccc2/C1=C1\CCc2cc(O)ccc21
5.71

Return reported inhibition; argument: c1ccc(-c2n[nH]cc2-c2ccnc(-c3ccc(OCCn4ccnc4)cc3)c2)nc1
2.7

Return reported inhibition; argument: Cc1cc(O)cc(C)c1/C=C/c1cncc(C(N)=O)c1
1.69

Return reported inhibition; argument: O=C(O[C@H]1CN[C@H](C#Cc2cc3ncnc(Nc4ccc5c(ccn5Cc5cc(F)ccc5F)c4)c3s2)C1)N1CCOCC1
5.66

Return reported inhibition; argument: COc1ccccc1-c1cc(/C=C2\C(=O)Nc3ncc(Br)cc32)cc(Br)c1O
3.44

Return reported inhibition; argument: O=C(O[C@H]1CN[C@H](C#Cc2cc3ncnc(Nc4ccc5c(cnn5Cc5ccccc5)c4)c3s2)C1)N1CCOCC1
0.01

Return reported inhibition; argument: CCS(=O)(=O)c1ccc(OC)c(Nc2ncc(-c3cccc(C(C)=O)c3)o2)c1
-1.02

Return reported inhibition; argument: COc1c(C(N)=O)cc(-c2ccc(Cl)cc2)cc1-c1ccc(S(N)(=O)=O)cc1
3.46

Return reported inhibition; argument: COc1cc(N2CCN(C(C)C)CC2)ccc1Nc1nc(Nc2cccc3ncccc23)c2cc[nH]c2n1
0.17

Return reported inhibition; argument: CCS(=O)(=O)c1ccc(OC)c(Nc2ncc(-c3cccc(F)c3)o2)c1
7.66

Return reported inhibition; argument: CC1(C)CC(n2cnc(-c3ccc(F)cc3)c2-c2ccnc(N)n2)CC(C)(C)N1
-1.22

Return reported inhibition; argument: COc1cc2c(cc1Nc1nc(Nc3cccc(F)c3C(N)=O)c3cc[nH]c3n1)N(C(=O)CN1CCN(C(C)C)CC1)CC2
3.04

Return reported inhibition; argument: O=C(O[C@H]1CN[C@H](C#Cc2cc3ncnc(Nc4ccc(OCc5cccc(F)c5)c(Cl)c4)c3s2)C1)N1CCOCC1
3.19

Return reported inhibition; argument: CS(=O)(=O)CCNCc1ccoc1-c1ccc2ncnc(Nc3ccc(OCc4ccccc4)cc3)c2c1
1.1

Return reported inhibition; argument: Fc1ccc(Nc2nccc(-c3c(-c4ccc(C(F)(F)F)cc4)nn4ncccc34)n2)cc1F
1.98

Return reported inhibition; argument: Cn1c(-c2nonc2N)nc2cnccc21
0.7

Return reported inhibition; argument: Cc1nnc(-c2cccc(-c3ccc(C(=O)NCC4CC4)cc3)c2)o1
3.54

Return reported inhibition; argument: CN(C)CCNC(=O)Nc1ccc(N(C)c2ccnc(Nc3ccc(CS(C)(=O)=O)cc3)n2)cc1
4.37

Return reported inhibition; argument: CNC(=O)c1sc(-n2cnc3cc(OC)c(OC)cc32)cc1OCc1ccccc1C(F)(F)F
2.65

Return reported inhibition; argument: NC(=O)c1ccc2c(-c3ccnc(NCCCO)n3)c(-c3ccc(F)cc3)nn2c1
38

Return reported inhibition; argument: COc1ccc2ncn(-c3cc(O[C@H](C)c4ccccc4C(F)(F)F)c(C(N)=O)s3)c2c1
0.32

Return reported inhibition; argument: CS(=O)(=O)CCNCc1ccc(-c2ccc3ncnc(Nc4ccc(OCc5cccc(C(F)(F)F)c5)cc4)c3c2)o1
3.75

Return reported inhibition; argument: Cc1c2ccc(N(C)c3ccnc(Nc4cccc(S(N)(=O)=O)c4)n3)cc2nn1C
3.51

Return reported inhibition; argument: OCCCNc1nccc(-c2c(-c3ccc(F)cc3)nn3cc(C(F)(F)F)ccc23)n1
14.8

Return reported inhibition; argument: NS(=O)(=O)c1ccc(N/N=C2\C(=O)Nc3ccc(C(=O)NCc4ccncc4)cc32)cc1
2.55

* * *

Target: MAP kinase-interacting serine/threonine-protein kinase 1 (Homo sapiens);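 further: each value is an averaged percent inhibition of MKNK1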
Settings: at 1 µM
Assay Metric: inhibition

Return reported inhibition; argument: Fc1cccc(COc2ccc(Nc3ncncc3C#Cc3ccccc3)cc2Cl)c1
11.8%

Return reported inhibition; argument: NC(=O)c1ccc2c(-c3ccnc(NCCCO)n3)c(-c3ccc(F)cc3)nn2c1
13.4%

Return reported inhibition; argument: NS(=O)(=O)c1ccc(N/N=C2\C(=O)Nc3ccc(C(=O)NCc4ccncc4)cc32)cc1
10.9%

Return reported inhibition; argument: CS(=O)(=O)CCNCc1ccc(-c2ccc3ncnc(Nc4ccc(OCc5cccc(C(F)(F)F)c5)cc4)c3c2)o1
6.48%

Return reported inhibition; argument: COc1cccc(-n2ncc3c(N/N=C/c4ccc(C(=O)NCCN(C)C)cc4)ncnc32)c1
72.9%

Return reported inhibition; argument: CC1=C(C(=O)Nc2ccc3[nH]nc(C)c3c2)C(c2ccc(C(F)(F)F)cc2)CC(=O)N1 (centres undefined)
6.23%

Return reported inhibition; argument: CCn1c(-c2nonc2N)nc2cncc(C(=O)NCCNC)c21
6.9%

Return reported inhibition; argument: CCOc1ccc2c(-c3ccnc(Nc4cc(OC)cc(C(F)(F)F)c4)n3)cnn2n1
8.47%

Return reported inhibition; argument: CN(C)CCNC(=O)Nc1ccc(N(C)c2ccnc(Nc3ccc(CS(C)(=O)=O)cc3)n2)cc1
3.79%

Return reported inhibition; argument: COC(=O)Nc1nc2ccc(Oc3ccc(NC(=O)Nc4cc(C(F)(F)F)ccc4F)cc3)cc2s1
15.7%

Return reported inhibition; argument: Fc1ccc(Nc2nccc(-c3c(-c4ccc(C(F)(F)F)cc4)nn4ncccc34)n2)cc1F
2.85%

Return reported inhibition; argument: O=C(O[C@H]1CN[C@H](C#Cc2cc3ncnc(Nc4ccc(OCc5cccc(F)c5)c(Cl)c4)c3s2)C1)N1CCOCC1
11.4%

Return reported inhibition; argument: N#Cc1cccc(Nc2ncc(-c3ccccc3)o2)c1
10.1%

Return reported inhibition; argument: COc1ccc(Nc2ncc(-c3ccccc3)o2)cc1OC
28.8%

Return reported inhibition; argument: CS(=O)(=O)CCNCc1ccoc1-c1ccc2ncnc(Nc3ccc(OCc4ccccc4)cc3)c2c1
4.19%

Return reported inhibition; argument: COc1cccc(Nc2nccc(-c3cnn4ncccc34)n2)c1
11.3%

Return reported inhibition; argument: CS(=O)(=O)CCNCc1ccc(-c2ccc3ncnc(Nc4ccc(OCc5ccccc5)cc4)c3c2)o1
6.82%

Return reported inhibition; argument: Cc1nnc(-c2cccc(-c3ccc(C(=O)NCC4CC4)cc3)c2)o1
6.32%

Return reported inhibition; argument: CN(c1ccc(NC(=O)NCCN2CCOCC2)cc1)c1ccnc(Nc2ccc(CS(C)(=O)=O)cc2)n1
8.84%

* * *

Biological target: Tyrosine-protein kinase CSK (Homo sapiens) (UniProt P41240);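 further: each value is an averaged inhibition reading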
Sequence (P41240 2-450 limits assumed): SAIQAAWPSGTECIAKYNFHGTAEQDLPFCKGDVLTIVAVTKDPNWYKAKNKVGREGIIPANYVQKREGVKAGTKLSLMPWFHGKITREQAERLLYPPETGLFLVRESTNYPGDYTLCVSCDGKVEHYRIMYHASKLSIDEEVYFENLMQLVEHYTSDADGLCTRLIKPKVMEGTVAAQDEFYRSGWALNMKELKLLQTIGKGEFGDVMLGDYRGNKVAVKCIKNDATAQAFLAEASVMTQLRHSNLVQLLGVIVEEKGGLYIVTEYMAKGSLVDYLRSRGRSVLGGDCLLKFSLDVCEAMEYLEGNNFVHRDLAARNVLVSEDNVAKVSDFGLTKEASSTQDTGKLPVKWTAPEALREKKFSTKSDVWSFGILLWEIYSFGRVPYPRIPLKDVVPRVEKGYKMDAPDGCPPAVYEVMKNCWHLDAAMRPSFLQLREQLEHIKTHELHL
Settings: at 1 µM
Consider the following compounds; for each one, report its inhibition.
The answer is to be given in %; state only the numeric part.

Item CCn1c(-c2nonc2N)nc2cncc(C(=O)NCCNC)c21 with Tyrosine-protein kinase CSK (Homo sapiens) (UniProt P41240) - inhibition?
4.95

Item COc1cc(N2CCN(C(C)C)CC2)ccc1Nc1nc(Nc2cccc3ncccc23)c2cc[nH]c2n1 with Tyrosine-protein kinase CSK (Homo sapiens) (UniProt P41240) - inhibition?
-2.41

Item CN(C)CCNC(=O)Nc1ccc(N(C)c2ccnc(Nc3ccc(CS(C)(=O)=O)cc3)n2)cc1 with Tyrosine-protein kinase CSK (Homo sapiens) (UniProt P41240) - inhibition?
1.47

Item COc1cc(Nc2ncc(-c3ccccc3)o2)cc(OC)c1 with Tyrosine-protein kinase CSK (Homo sapiens) (UniProt P41240) - inhibition?
4.79

Item O=C(Nc1n[nH]c2nnc(-c3cccnc3)cc12)C1CC1 with Tyrosine-protein kinase CSK (Homo sapiens) (UniProt P41240) - inhibition?
-1.56

Item CCCNc1cccc(-n2ncc3c(N/N=C/c4ccncc4)ncnc32)c1 with Tyrosine-protein kinase CSK (Homo sapiens) (UniProt P41240) - inhibition?
12.1

Item O=C1Nc2ccccc2/C1=C1\CCc2cc(O)ccc21 with Tyrosine-protein kinase CSK (Homo sapiens) (UniProt P41240) - inhibition?
4.47

* * *

Molecular target: Tyrosine-protein kinase HCK (Homo sapiens);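 further: values are mean inhibition of HCK, taken from the GSK_PKIS kinase profiling screen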
Conditions: at 0.1 µM
Please use criterion met whenever inhibition is not below 5%, and criterion not met whenever it is.

Would you say NC(=O)c1ccc2c(-c3ccnc(NCCCO)n3)c(-c3ccc(F)cc3)nn2c1 shows inhibition at minimum 5%?
criterion met

Would you say c1ccc(-c2n[nH]cc2-c2ccnc(-c3ccc(OCCn4ccnc4)cc3)c2)nc1 shows inhibition at minimum 5%?
criterion not met

Would you say CS(=O)(=O)Nc1ccc(-c2ccc3c(NC(=O)C4CC4)n[nH]c3c2)cc1 shows inhibition at minimum 5%?
criterion met

Would you say c1cnn2ncc(-c3ccnc(NCCCN4CCOCC4)n3)c2c1 shows inhibition at minimum 5%?
criterion met

Would you say NS(=O)(=O)c1ccc(N/N=C2\C(=O)Nc3ccc(C(=O)NCc4ccncc4)cc32)cc1 shows inhibition at minimum 5%?
criterion met

Would you say Cc1ccc(-c2cc3c(NC(=O)C4CC4)ncnc3o2)cc1 shows inhibition at minimum 5%?
criterion met

Would you say OCCCNc1nccc(-c2c(-c3ccc(F)cc3)nn3cc(C(F)(F)F)ccc23)n1 shows inhibition at minimum 5%?
criterion met

Would you say COc1cc(Nc2ncc(-c3ccccc3)o2)cc(OC)c1 shows inhibition at minimum 5%?
criterion met

Would you say CCN1CCC(C(=O)Nc2n[nH]c3nnc(-c4cccc(F)c4F)cc23)CC1 shows inhibition at minimum 5%?
criterion not met

Would you say CC1=C(C(=O)Nc2ccc3[nH]ncc3c2)C(c2ccc(F)cc2)N=C(c2ccc(C(F)(F)F)nc2)N1 (stereo unspecified) shows inhibition at minimum 5%?
criterion not met

Would you say CC1(C)CC(n2cnc(-c3ccc(F)cc3)c2-c2ccnc(N)n2)CC(C)(C)N1 shows inhibition at minimum 5%?
criterion not met

Would you say FC(F)(F)CNc1nccc(-c2cnn3ncccc23)n1 shows inhibition at minimum 5%?
criterion not met

Would you say O=C(Nc1n[nH]c2nnc(-c3cccnc3)cc12)C1CC1 shows inhibition at minimum 5%?
criterion not met

Would you say CS(=O)(=O)CCNCc1ccoc1-c1ccc2ncnc(Nc3ccc(OCc4ccccc4)cc3)c2c1 shows inhibition at minimum 5%?
criterion not met

Would you say Fc1ccc(Nc2nccc(-c3c(-c4ccc(C(F)(F)F)cc4)nn4ncccc34)n2)cc1F shows inhibition at minimum 5%?
criterion not met

Would you say Cc1cc(O)cc(C)c1/C=C/c1cncc(C(N)=O)c1 shows inhibition at minimum 5%?
criterion met

Would you say COc1ccc2ncn(-c3cc(O[C@H](C)c4ccccc4C(F)(F)F)c(C(N)=O)s3)c2c1 shows inhibition at minimum 5%?
criterion not met

Would you say CS(=O)(=O)CCNCc1ccc(-c2ccc3ncnc(Nc4ccc(OCc5cccc(C(F)(F)F)c5)cc4)c3c2)o1 shows inhibition at minimum 5%?
criterion met

Would you say CNC(=O)c1sc(-n2cnc3cc(OC)c(OC)cc32)cc1OCc1ccccc1C(F)(F)F shows inhibition at minimum 5%?
criterion met

Would you say Cc1nnc(-c2cccc(-c3ccc(C(=O)NCC4CC4)cc3)c2)o1 shows inhibition at minimum 5%?
criterion met

Would you say CC(C)c1ccc(-c2cc(-c3c[nH]nc3-c3ccccn3)ccn2)cc1 shows inhibition at minimum 5%?
criterion not met

Would you say N#Cc1cccc(Nc2ncc(-c3ccccc3)o2)c1 shows inhibition at minimum 5%?
criterion not met

Would you say CCCNc1cccc(-n2ncc3c(N/N=C/c4ccncc4)ncnc32)c1 shows inhibition at minimum 5%?
criterion met

Would you say CCS(=O)(=O)c1ccc(OC)c(Nc2ncc(-c3cccc(F)c3)o2)c1 shows inhibition at minimum 5%?
criterion met

Would you say O=C(O[C@H]1CN[C@H](C#Cc2cc3ncnc(Nc4ccc(OCc5cccc(F)c5)c(Cl)c4)c3s2)C1)N1CCOCC1 shows inhibition at minimum 5%?
criterion not met

Would you say CN1CCC(n2cnc(-c3ccc(F)cc3)c2-c2ccnc(NCCO)n2)CC1 shows inhibition at minimum 5%?
criterion not met

Would you say NS(=O)(=O)c1cccc(N/C=C2\C(=O)Nc3ccccc32)c1 shows inhibition at minimum 5%?
criterion met

Would you say COc1cccc(Nc2nccc(-c3cnn4ncccc34)n2)c1 shows inhibition at minimum 5%?
criterion met

Would you say COC(=O)Nc1nc2cc(Oc3ccc(NC(=O)Nc4ccccc4)cc3)ccc2[nH]1 shows inhibition at minimum 5%?
criterion not met

Would you say CN(c1ccc(NC(=O)NCCN2CCOCC2)cc1)c1ccnc(Nc2ccc(CS(C)(=O)=O)cc2)n1 shows inhibition at minimum 5%?
criterion not met
